meta.source: patent US20180117174A1

- Measured On: T1, human claudin 18 splice variant 2 (CLDN18.2) (human)
- T1 construct: also called claudin 18 isotype 2
- Assay Name: flow cytometry, HEK293 cells stably expressing CLDN18.2; APC-conjugated secondary antibody; binding assay 3
Readout Type: EC50 (µg/mL)

Binder	Value Units	Observed
mu mAB362 (mouse IgG1) (antibody, V domains shown, also called mu muAB362 (IgG1)) VH: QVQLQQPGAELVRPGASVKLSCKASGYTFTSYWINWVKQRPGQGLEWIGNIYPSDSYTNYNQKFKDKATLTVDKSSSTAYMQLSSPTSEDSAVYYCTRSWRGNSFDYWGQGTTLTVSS VL: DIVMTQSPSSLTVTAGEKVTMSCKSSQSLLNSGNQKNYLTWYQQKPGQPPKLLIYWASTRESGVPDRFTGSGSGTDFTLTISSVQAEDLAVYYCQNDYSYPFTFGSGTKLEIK	µg/mL	2.24
